Data provenance: paper PMC8838197

targetOfAssay: hMAO-B (Homo sapiens, UniProt P27338)
Sequence (P27338 whole entry): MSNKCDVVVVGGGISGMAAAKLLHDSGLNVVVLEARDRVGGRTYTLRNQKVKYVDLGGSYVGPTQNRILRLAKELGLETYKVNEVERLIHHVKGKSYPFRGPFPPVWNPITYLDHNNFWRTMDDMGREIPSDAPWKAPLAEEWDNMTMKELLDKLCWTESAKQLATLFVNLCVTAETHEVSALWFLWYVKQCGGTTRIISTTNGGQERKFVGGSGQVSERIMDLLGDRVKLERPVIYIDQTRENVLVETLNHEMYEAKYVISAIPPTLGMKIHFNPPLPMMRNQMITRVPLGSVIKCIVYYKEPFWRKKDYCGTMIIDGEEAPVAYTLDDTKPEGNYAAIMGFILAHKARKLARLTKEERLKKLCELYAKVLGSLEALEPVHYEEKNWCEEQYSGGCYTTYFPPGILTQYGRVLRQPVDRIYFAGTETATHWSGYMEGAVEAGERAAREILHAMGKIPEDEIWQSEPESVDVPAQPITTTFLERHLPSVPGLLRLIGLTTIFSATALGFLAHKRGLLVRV
assayName: hMAO-B inhibition, Amplex Red MAO assay, recombinant enzyme
parameterMeasured: IC50 (nM)

INSERT INTO results (compound, targetofassay, assayresult) VALUES
  ('O=c1ccc2cc(/C=C/c3ccccc3)ccc2o1 [trans-6-Styrylcoumarin]', 'hMAO-B (Homo sapiens, UniProt P27338)', 110);

###

targetOfAssay: hMAO-B (Homo sapiens, UniProt P27338)
assayName: hMAO-B inhibition, Amplex Red MAO assay, recombinant enzyme
conditionNotes: read-out: IC50 hMAO-B; recombinant hMAO-B expressed in baculovirus-infected BTI insect cells; n = 5
pIC50: −log10 of the molar value.
parameterMeasured: pIC50

INSERT INTO results (compoundstructure, targetofassay, assayresult) VALUES
  ('O=c1oc2ccccc2cc1-c1ccccc1', 'hMAO-B (Homo sapiens, UniProt P27338)', 4.93);
